- Test system: Avena fatua (AVEFA)
- Assay Name: Pre-emergence herbicidal action against AVEFA
- Assay type: in vivo
- Settings: 80 g/ha, visual scoring after about 3 weeks vs untreated controls
Give Pre-emergence action against AVEFA in % for every item shown.

Below are worked cases with known answers.
Q) Given the entry C[C@@H](Oc1nn(-c2ncccc2F)c(-c2ccc(F)nc2)c1C(F)(F)F)C(=O)O , report its measured Pre-emergence action against AVEFA in %.
A) 90%

Q) Item under review: CCOC(=O)COc1nn(-c2nc(F)ccc2F)c(-c2ccc(F)nc2)c1Br . Reported Pre-emergence action against AVEFA in %?
A) 80%

Q) What does the record list as Pre-emergence action against AVEFA in % for CCOC(=O)COc1nn(-c2nc(F)ccc2F)c(-c2cncc(F)c2)c1C1CC1 ?
A) 80%

Q) Need Pre-emergence action against AVEFA in % of Cc1cccnc1-n1nc(OCC(=O)O)c(Cl)c1-c1ccc(F)nc1 , thanks.
A) 90%

Q) Entry O=C(O)COc1nn(-c2ncccc2F)c(-c2ccc(F)nc2)c1Br has what Pre-emergence action against AVEFA in %?
A) 80%

I need Pre-emergence action against AVEFA in % for every entry listed below, if you could help.
1. COC(=O)[C@@H](C)Oc1nn(-c2ncccc2F)c(-c2ccc(F)nc2)c1C1CC1
2. CC(Oc1nn(-c2ccccn2)c(-c2ccc(F)nc2)c1C(F)(F)F)C(=O)O (centres unmarked)

A)
1. 90%
2. 80%

Provide Pre-emergence action against AVEFA in % for all items below, preserving their order.
1. C[C@@H](Oc1nn(-c2ncccc2Cl)c(-c2ccc(F)nc2)c1Br)C(=O)O
2. CCOC(=O)[C@@H](C)Oc1nn(-c2ccccn2)c(-c2cncc(F)c2)c1Cl
3. COC(=O)COc1nn(-c2nc(F)ccc2F)c(-c2cncc(F)c2)c1C1CC1
4. COC(=O)[C@@H](C)Oc1nn(-c2ncccc2F)c(-c2cncc(F)c2)c1Br

A)
1: 90%; 2: 80%; 3: 90%; 4: 80%

meta.source: patent US20240041042A1
